System: U251 CNS
Test: NCI-60 one-dose screen, 48 h (100 = growth as untreated, 0 = no growth, -100 = all killed)
Conditions: 10 µM
Experimental: Growth inhibition of the U251 human tumor cell line is measured as a screen for anti-cancer activity. Cells are grown in 96 well plates and exposed to the test compound for 48 hours. Compounds are tested at a single concentration, which is 10^-5 M for most compounds. The reported endpoint is percent growth (GI% or GIPRCNT), where numbers from 0 - 100% represent growth inhibition, and numbers from -100% - 0 represent cell death. For example, a value of 40 represents 60% growth inhibition. […]
The panel holds about 83,000 compounds, 20% with a hit somewhere; the sample as a whole holds those more often.
Provide the reported growth of each item.
Please respond with the number in % and leave the unit unwritten.

### Prompt Which growth value is on record for N#Cc1c(Cl)nc(SCc2ccc(F)cc2)nc1-c1ccc(F)cc1 ?
### Response 92.8

### Prompt One more molecule: NS(=O)(=O)c1ccc(N=Nc2c(O)n(CC(=O)Nc3ccccc3Br)c3ccccc23)cc1
### Response 25.1

### Prompt One more molecule: CN(C)c1ccc(/C=C/c2nc3ccccc3c(=O)n2CC(=O)Nc2ccccc2)cc1
### Response 16.5

### Prompt One more molecule: COc1cc2c3c(n(CCCN4CCOCC4)c(=O)c2cc1OC)-c1nc2c(cc1C3=O)OCO2
### Response -18.9

### Prompt One more molecule: CN(CCO)c1oc(-c2ccccc2)nc1[P+](c1ccccc1)(c1ccccc1)c1ccccc1
### Response 15.3

### Prompt One more molecule: CSc1nc(-c2cccc(C)c2)c2cc(-c3ccccc3)n(C)c2n1
### Response 17.4

====

Test system: SF-539 CNS
Test: NCI-60 one-dose screen, 48 h (100 = growth as untreated, 0 = no growth, -100 = all killed)
Conditions: 10 µM
The panel holds about 83,000 compounds, 20% with a hit somewhere; the sample as a whole holds those more often.
Under this convention, Met denotes growth strictly below 40% and Not met denotes growth at or above 40%.

### Prompt Hello, is growth of the following compound strictly smaller than 40%? O=c1c2ccccc2nc(COc2ccccc2)n1/N=C/c1ccc(N2CCOCC2)cc1
### Response Met

### Prompt One more compound: COc1ccc(C2N(c3ccc(Br)cc3)N=C(C(C)=O)N2[C@H]2[C@H](OC(C)=O)O[C@H](COC(C)=O)[C@@H](OC(C)=O)[C@@H]2OC(C)=O)cc1 (stereo not given in full)
### Response Not met

### Prompt One more compound: C=C[C@@]12CN3CC[C@]1(O)[C@@](C(=O)OC)(CO2)c1[nH]c2ccccc2c1C3
### Response Not met

### Prompt One more compound: Cc1cc(C)nc(NS(=O)(=O)c2ccc(N/C(N)=N/c3nccc(-c4ccccc4)n3)cc2)n1
### Response Not met

### Prompt One more compound: CC(C)c1ccc(C(=O)Nc2sc3c(c2C(N)=O)CCC(=O)C3=O)cc1
### Response Not met

### Prompt One more compound: COc1cccc2nc(Nc3cccc(NC(=O)c4ccc(CN5CCCN(C)CC5)c(C(F)(F)F)c4)c3)ccc12
### Response Met

### Prompt One more compound: O=C(Nc1ccc(Cl)c(C(F)(F)F)c1)c1cncc(C#Cc2cnc3ccc(N4CCOCC4)nn23)c1
### Response Met

### Prompt One more compound: CC(=O)OC[C@@]1(C)C2CC[C@]3(C)C(CC=C4C5CC(C)(C)CC[C@]5(C(=O)Nc5ccccc5)CC[C@]43C)[C@@]2(C)C[C@@H](OC(C)=O)[C@@H]1OC(C)=O (stereo not given in full)
### Response Not met

### Prompt One more compound: O=C(CSc1nnc(-c2ccc3nc(-c4ccc(Cl)cc4)[nH]c3c2)o1)Nc1ccc(Cl)cc1
### Response Met

### Prompt One more compound: Cc1ccc(-c2cc(C(=O)N=Nc3c(O)[nH]c4ccc(Br)cc34)c3ccccc3n2)cc1
### Response Not met

====

Provide the reported growth of each item.
Test system: T-47D breast
Experiment: NCI-60 one-dose screen, 48 h (100 = growth as untreated, 0 = no growth, -100 = all killed)
Details: 10 µM
Method: Growth inhibition of the T-47D human tumor cell line is measured as a screen for anti-cancer activity. Cells are grown in 96 well plates and exposed to the test compound for 48 hours. Compounds are tested at a single concentration, which is 10^-5 M for most compounds. The reported endpoint is percent growth (GI% or GIPRCNT), where numbers from 0 - 100% represent growth inhibition, and numbers from -100% - 0 represent cell death. For example, a value of 40 represents 60% growth inhibition. […]
Compounds without any hit were thinned out: in the full panel of roughly 83,000, 20% have a hit.
Please respond with the number in % and leave the unit unwritten.

### Prompt Which growth value is on record for C=C(c1ccc(OC)c(N)c1)c1cc(C)nc2ccccc12 ?
### Response 62.6

### Prompt One more compound: COc1ccc2[nH]c(=O)c(CSc3cccc(N)c3)cc2c1
### Response 37.5

### Prompt One more compound: Cc1cc(C)nc(SCC(=O)Nc2ccc(S(N)(=O)=O)cc2)n1
### Response 105

====

System: MDA-MB-468 breast
Assay: NCI-60 one-dose screen, 48 h (100 = growth as untreated, 0 = no growth, -100 = all killed)
Conditions: 10 µM
The panel holds about 83,000 compounds, 20% with a hit somewhere; the sample as a whole holds those more often.
Values of growth greater than or equal to 20% map to met; values below map to not met.

### Prompt Please tell me: is the molecule C=CCn1c(SCC(=O)Nc2ccc(C(=O)/C=C/c3ccccc3)cc2)nnc1-c1c[nH]c2ccccc12 at or over 20% in terms of growth?
### Response not met

### Prompt One more molecule: COc1cc(/C=C/C(=O)c2ccc(F)cc2)ccc1Oc1nc(Nc2ccc(F)cc2)nc(N(C)C)n1
### Response met

### Prompt One more molecule: O=C(CSc1nnc(-c2ccc3nc(-c4ccccc4)[nH]c3c2)o1)Nc1ccc(Cl)cc1
### Response met

### Prompt One more molecule: COc1cccc(/C=N/NC(=O)c2ccc3nc(-c4ccc(Cl)cc4)[nH]c3c2)c1O
### Response not met

### Prompt One more molecule: COc1cc(C2CC(c3ccc(C)cc3)=Nc3c(N)nc(N)nc3N2)ccc1Oc1nc(Nc2ccc(F)cc2)nc(N(C)C)n1 (stereo not given)
### Response not met

====

Provide the reported growth of each item.
Tested on: CCRF-CEM leukemia
Test: NCI-60 one-dose screen, 48 h (100 = growth as untreated, 0 = no growth, -100 = all killed)
Conditions: 10 µM
This is part of a sample that, as a whole, favours compounds with a hit. Of some 83,000 tested, about 20% had one in any assay.
Please respond with the number in % and leave the unit unwritten.

### Prompt Which growth value is on record for O=S(=O)(Nc1ncccn1)c1ccc(-n2c(-c3ccccc3)nc(-c3ccccc3)c2-c2ccccc2)cc1 ?
### Response 75.7

### Prompt One more molecule: O=c1oc2ccc(-c3ccc(F)cc3F)cc2c(=O)n1-c1ccc(Cl)c(C(F)(F)F)c1
### Response -5.71

### Prompt One more molecule: N#Cc1c(-c2ccc(F)cc2)nc(SCc2ccc(F)cc2)nc1N1CCOCC1
### Response 87.1

### Prompt One more molecule: O=c1[nH]c2ccccc2cc1CSc1ccc(Nc2nccc(-c3ccc(C(F)(F)F)cc3)n2)cc1
### Response 75

### Prompt One more molecule: COc1ccc2[nH]c(O)c(N=NC(=O)COc3ccc(NC(=O)Nc4ccc(Cl)c(Cl)c4)cc3)c2c1
### Response 20.8

### Prompt One more molecule: O=C(CSc1ccc(-c2ccc(Cl)cc2)nn1)Nc1ccc(Cl)c(C(F)(F)F)c1
### Response 44.9

### Prompt One more molecule: CC1(c2ccccc2)NC(=O)N(CC(=O)Nc2ccc(C(=O)/C=C/c3ccc(Br)cc3)cc2)C1=O (centres undefined)
### Response 32

### Prompt One more molecule: Cc1nn(-c2ccccc2)c2ncn(CC(=O)N/N=C/c3c[nH]c4ccccc34)c(=O)c12
### Response 85

### Prompt One more molecule: CN1CCN(c2ccc(Nc3nc(NCCCNC(=O)c4ccccc4)c4sccc4n3)cc2)CC1
### Response 25.2

### Prompt One more molecule: O=C(CNc1nc(-c2ccccc2)cs1)Nc1cccc([N+](=O)[O-])c1
### Response 0.432

### Prompt One more molecule: O=C(Nc1nc2ccc([N+](=O)[O-])cc2s1)Nc1ccccc1I
### Response 3.88

### Prompt One more molecule: N#Cc1ccc(-c2nn(-c3ccc(C(=O)O)cc3)cc2CNc2cc(Cl)cc(Cl)c2)cc1
### Response 13.7

### Prompt One more molecule: COc1cccc(-c2ccnc(/N=C(\N)Nc3ccc(S(=O)(=O)Nc4nc(C)cc(C)n4)cc3)n2)c1
### Response 98.5

### Prompt One more molecule: Oc1ccc(/C=C2\CCCc3cc4ccc(O)cc4[o+]c32)c(O)c1
### Response 39

### Prompt One more molecule: O=C(c1ccccc1)n1ccc(-c2cc3cc(Br)ccc3oc2=O)n1
### Response 4.71

### Prompt One more molecule: CCCn1c(=O)c2[nH]c(-c3ccc(OCc4nc5ccc(C)cc5[nH]4)cc3)nc2n(CCC)c1=O
### Response 46.8

### Prompt One more molecule: COC1CC(Cn2cc(COc3ccc4ccc(=O)oc4c3)nn2)C(OCc2ccccc2)C(OCc2ccccc2)C1OCc1ccccc1 (centres undefined)
### Response 87

### Prompt One more molecule: O=C(CSc1nnc(-c2ccc3nc(-c4ccccc4)[nH]c3c2)o1)Nc1ccc(Br)cc1
### Response 39.4

### Prompt One more molecule: O=C1Nc2ccc(Cl)cc2/C1=C/c1cccc(OCc2ccccc2)c1
### Response -21.5

### Prompt One more molecule: COc1ccc(-c2ccc(/C=N/NC(=O)c3[nH]c4ccc(Br)cc4c3-c3ccccc3)o2)cc1
### Response 10.5

### Prompt One more molecule: COc1ccc2nc(Nc3cccc(NC(=O)c4ccc(CN5CCN(C)CC5)c(C(F)(F)F)c4)c3)ccc2c1
### Response -10.5

### Prompt One more molecule: C[C@H]1[C@H](C)CC[C@]2(COC(=O)CCC(=O)NCC#CCN3CCNCC3)CC[C@]3(C)C(=CC[C@@H]4[C@@]5(C)CCCNC(C)(C)[C@@H]5CC[C@]43C)[C@H]12
### Response 12.5

### Prompt One more molecule: O=C(Nc1ccc(I)cc1)Nc1nc2ccc([N+](=O)[O-])cc2s1
### Response -81.1

### Prompt One more molecule: O=C1Nc2ccc(F)cc2/C1=C/c1cccc(OCc2ccccc2)c1
### Response -4.49
